Below, each entry is listed with its recorded OD (PE binding ELISA).
Molecular target: T1, human IL-2Rγ (common cytokine receptor γ-chain) (human, UniProt P31785 23-262, limits assumed)
T1 construct: Recombinant protein coated on the plate or immobilised on a CM5 chip; also called hu IL-2R; CD132
T1 sequence: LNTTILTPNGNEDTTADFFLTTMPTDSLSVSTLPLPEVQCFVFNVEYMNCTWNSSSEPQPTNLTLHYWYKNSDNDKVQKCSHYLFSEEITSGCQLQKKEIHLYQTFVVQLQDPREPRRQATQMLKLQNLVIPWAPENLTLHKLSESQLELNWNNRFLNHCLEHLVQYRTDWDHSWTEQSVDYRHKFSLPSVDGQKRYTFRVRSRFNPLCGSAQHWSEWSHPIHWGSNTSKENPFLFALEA
Experiment: PE binding ELISA, periplasmic extract on coated protein
Numbers only here, please. The scale is OD450 nm.

binder	OD (PE binding ELISA) (OD450 nm)
36-MP07F02 (VHH, VHH in periplasmic extract; also called FJ1427_P035MP07F02; clone nr; 590) VHH: QVQLVESGGGLVQAGGSLRLSCAASGRTLSRYAMGWFRQAPGSEREFVAASSWGGDTFYADSVEGRFTFSRDNAKNAVYLQMNSLQPEDTAAYYCAAAPTSFPTTAYSSSNSYAYWGQGTQVTVSS	0.896
FJ1427_P035MP04A07 (VHH, VHH in periplasmic extract; also called clone nr) VHH: QLQLVESGGGWVQVGESLRLSCAPSGRTFVSGIMGWFRQAPGKEREFVARIILNNNSTRYIDSVKGRFTISRDSAKNTMYLQMDSLRPEDTAVYYCAARDRYGSGNSLSPSAYDYWGQGTQVTVSS	1.9
29-MP04H02 (VHH, VHH in periplasmic extract; also called FJ1427_P035MP04H02; clone nr) VHH: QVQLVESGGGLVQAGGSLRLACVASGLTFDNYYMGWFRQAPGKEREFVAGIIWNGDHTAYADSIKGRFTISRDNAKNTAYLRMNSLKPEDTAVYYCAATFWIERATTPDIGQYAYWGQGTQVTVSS	0.157
FJ1427_P035MP04G02 (VHH, VHH in periplasmic extract; also called clone nr) VHH: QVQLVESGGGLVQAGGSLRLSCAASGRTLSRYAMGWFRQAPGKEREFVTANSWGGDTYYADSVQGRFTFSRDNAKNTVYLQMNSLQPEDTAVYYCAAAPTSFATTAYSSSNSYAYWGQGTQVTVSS	0.98
FJ1427_P035MP04G04 (VHH, VHH in periplasmic extract; also called clone nr) VHH: QVQLVESGGGLVQAGGSLRLSCAASGRTLSRYAVGWFRQAPGKEREFVTANSWGGDTFYADSVQGRFTFSRDNAKNTVYLQMNSLLPEDAAVYYCAAAPTSFATTAYSSSNSYKVWGQGTQVTVSS	1.67

Endpoint output: OD (PE binding ELISA) of FJ1427_P035MP04C01 (VHH, VHH in periplasmic extract; also called clone nr) VHH: QVQLVESGGGLVQAGGSLTLSCAASGRTFSTDVVGWFRQAPGKEREFVASISRSGDGIYYDDSVKGRFTISRNNAWNTVNLQMNNLKVEDTAVYYCAAGDGWSTYDYWGQGTQVTVSS . Value?
0.264

Endpoint output: OD (PE binding ELISA) of 34-MP04A12 (VHH, VHH in periplasmic extract; also called FJ1427_P035MP04A12; clone nr) VHH: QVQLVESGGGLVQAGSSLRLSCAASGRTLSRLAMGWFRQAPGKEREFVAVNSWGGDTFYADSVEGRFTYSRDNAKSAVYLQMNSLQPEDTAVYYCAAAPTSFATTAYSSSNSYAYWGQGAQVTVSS . Value?
1.3
